test system: Puccinia recondita; assay: Puccinia test (wheat)/protective; type: in vivo; conditions: protective spray, application rate 125 g/ha, evaluation 10 days after inoculation
observation-type: Efficacy in % found (%)
Report as a plain number; the unit % is understood.

Input: Fill in Efficacy in % found for record CCCC1COC(Cn2cncn2)(c2ccc(Cl)cc2Cl)O1 (centres unmarked)
Output: 56

Input: Fill in Efficacy in % found for record CCCCC(O)(Cn1cncn1)c1ccc(Cl)cc1Cl (centres unmarked)
Output: 78

Input: Fill in Efficacy in % found for record CC(C)CC(C)c1sccc1NC(=O)c1cn(C)nc1C(F)(F)F (centres unmarked)
Output: 33

Input: Fill in Efficacy in % found for record CC(C1CC1)C(O)(Cn1cncn1)c1ccc(Cl)cc1 (centres unmarked)
Output: 94

Input: Fill in Efficacy in % found for record `Cc1cc(C2CC2)nc(Nc2ccccc2)n1`
Output: 0
